Values from the supplement of paper PMC6755084

# Test system: F1*sub RNA substrate (template-directed ligation)
# Experiment: fraction ligated after 30 min (ligated reads / total reads); higher = more ligase activity; sequences stand for … in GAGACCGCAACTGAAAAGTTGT…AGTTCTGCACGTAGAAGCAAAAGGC
# Test Context: 42 °C
Hi, to clarify the labels: Criterion met covers fraction ligated from 0.6 upward, Criterion not met covers anything below 0.6.

Answered cases to consult:
Confirm if fraction ligated reported for the sequence TATCACTTGTCGTAAGCACTTTGTGGGTTGA [3d2136] is 0.6 or above.
Criterion not met

# bool: fraction ligated of TATCATTGTTAAGACACTTTGGATGGGTTGA [3d1172] >= 0.6
Criterion met

Reported fraction ligated reaches at least 0.6 for TTCACTTGTGTAAGACACTTTGGATGGTTGA [3d399] ?
Criterion not met

Hi team, for TTCACTTGTCTAAGACACTTTGGATGGGTTA [3d414] , is the recorded fraction ligated at or above 0.6?
Criterion not met

In plain terms: is recorded fraction ligated at least 0.6 for TATCACTTGTCGTAAGACACTTGGTGGTTGA [3d2245] ?
Criterion not met

API: above_or_equal(metric=fraction ligated, cutoff=0.6) for item TATACTTGTCGTAAGCACTTGGATGGGTTGA [3d896]
Criterion met

New cases:
# check: fraction ligated of TATCACTTTCGTAAGAACTTTGATGGGTTGA [3d1541] is greater than or equal to 0.6
Criterion met

Hi team, for TATCACTTGTCGTAGACACTTTGGATGGGTTG [2d233] , is the recorded fraction ligated at or above 0.6?
Criterion met

====

# Test system: F1*sub RNA substrate (template-directed ligation)
# Experiment: fraction ligated after 30 min (ligated reads / total reads); higher = more ligase activity; sequences stand for … in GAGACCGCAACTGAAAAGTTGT…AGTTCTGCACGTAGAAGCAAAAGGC
# Test Context: 42 °C
Quantity: fraction ligated

Enter reported fraction ligated observed with F1*sub RNA substrate (template-directed ligation) for TACACTTGTGTAAGACATTTGGATGGGTTGA [3d624]
0.392

Lab note: need fraction ligated for TATCATTGTCGTGACACTTTGGATGGGTTGA [3d1214] on F1*sub RNA substrate (template-directed ligation), anyone have it?
0.792

Which fraction ligated is reported with F1*sub RNA substrate (template-directed ligation) for this entry: TATACTTGTCGTAGACACTTTGGATGGGTTA [3d881] ?
0.00736

Next:
Lab note: need fraction ligated with F1*sub RNA substrate (template-directed ligation) for entry TTCACTTGTGTAAGACACTTGGATGGGTTGA [3d395] , please look it up.
0.161

// lookup fraction ligated | system=F1*sub RNA substrate (template-directed ligation) | key= TTCACTTGTCGTAGAACTTTGGATGGGTTGA [3d432]
0.761

Hi! What's the reported fraction ligated for TATCTTGTGTAAGACACTTTGGATGGGTTGA [3d742] on F1*sub RNA substrate (template-directed ligation)?
0.867

Enter reported fraction ligated observed with F1*sub RNA substrate (template-directed ligation) for TATCACTTGTCGTAAGACCTTTGGTGGTTGA [3d2197]
0.0467

F1*sub RNA substrate (template-directed ligation) / fraction ligated / TATCACTTGTCGTAAACACTTTGAGGGTTGA [3d2090] : value?
0.0504

Please state recorded fraction ligated (tested on F1*sub RNA substrate (template-directed ligation)) of TATCACTGTCGTAAGAACTTTGGATGGGTTA [3d1424]
0.851

What value of fraction ligated on F1*sub RNA substrate (template-directed ligation) does TATCATTGTCGTAAGCCTTTGGATGGGTTGA [3d1238] have?
0.798

Lab request: please report fraction ligated under test system F1*sub RNA substrate (template-directed ligation) for TATCACTTGCGTAAGAATTTGGATGGGTTGA [3d1659]
0.835

Field: fraction ligated (F1*sub RNA substrate (template-directed ligation)). Entry: TATACGTCGTAAGACACTTTGGATGGGTTGA [3d777]
0.735

Could you share what fraction ligated was measured for TATCACTTGCGTAAGACATTTGGATGGGTTG [3d1680] , tested on F1*sub RNA substrate (template-directed ligation)?
0.84

# returns recorded fraction ligated (system: F1*sub RNA substrate (template-directed ligation)) for TATCACTGTCGTAAGCACTTGGATGGGTTGA [3d1411]
0.745

Report fraction ligated for TATCCTTGTCTAAGACATTTGGATGGGTTGA [3d1021] tested on F1*sub RNA substrate (template-directed ligation).
0.793

Provide the documented fraction ligated with F1*sub RNA substrate (template-directed ligation) as the system for TATCACTTGTCGTAAGACACTTTGGAGGTTA [3d2277]
0.0104

====

In this section, each of the sequences is paired with its reported fraction ligated.
# Test system: F1*sub RNA substrate (template-directed ligation)
# Experiment: fraction ligated after 30 min (ligated reads / total reads); higher = more ligase activity; sequences stand for … in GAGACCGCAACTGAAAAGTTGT…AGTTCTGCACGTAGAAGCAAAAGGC
# Test Context: 42 °C
// return a plain number; no unit text

Observe how each entry below is paired with its result.
fraction ligated lookup needed for TATCCTTGTCGTAAGAACTTGGATGGGTTGA [3d1076] , thanks.
0.591

Please look up its fraction ligated: TACACTTGCGTAAGCACTTTGGATGGGTTGA [3d606]
0.764

Could you tell me which fraction ligated is on file for TATCACTGTCGAAGACATTTGGATGGGTTGA [3d1377] ?
0.841

Look up fraction ligated for this sequence: ATCACTTGTGTAAGACATTTGGATGGGTTGA [3d163]
0.798

GET /values?readout=fraction ligated&item= TATCACTTGTCGTAGACACTTTGATGGGTTA [3d2046]
0.156

Continuing:
# fraction ligated lookup, item TATACTTGTCGTAAGAATTTGGATGGGTTGA [3d903]
0.769

What measured fraction ligated goes with TATCATTGTCGTAAGACACTTTGATGGTTGA [3d1279] ?
0.027

If you can, please state the reported fraction ligated value of TATCACTTGTCGTAAGACACTTGATGGTTGA [3d2241] .
0.0196

Requested read-out: fraction ligated. Entry: TACACTTGTCGTAAGACCTTTGGATGGGTTA [3d705]
0.136

Can you share its fraction ligated? I mean this sequence: TTCACTTGTCGTAACACTTTGGATGGGTTGA [3d430]
0.728

Report fraction ligated for TATCACTTGTCGTAAGAACTTTGGAGGGTTGA [2d258] please.
0.0583

====

# Test system: F1*sub RNA substrate (template-directed ligation)
# Experiment: fraction ligated after 30 min (ligated reads / total reads); higher = more ligase activity; sequences stand for … in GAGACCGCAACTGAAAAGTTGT…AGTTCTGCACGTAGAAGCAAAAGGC
# Test Context: 42 °C
Measured fraction ligated, listed per entry for reference.
The answer should be a number; do not append a unit.

Using the record for TATCACTTGCGTAGCACTTTGGATGGGTTGA [3d1628] , report its fraction ligated.
0.859

Data request, read-out fraction ligated, for TATCACTTGTGTAAGCACTTTGGATGGTTGA [3d1761]
0.256

May I ask what fraction ligated has been recorded for TATCACTTGTGAAGACCTTTGGATGGGTTGA [3d1722] ?
0.823

Param item = TATCACTTTCGTAAGACACTTGGATGGGTTG [3d1567] ; retrieve measured fraction ligated.
0.773

Look up fraction ligated for this sequence: TCACTGTCGTAAGACACTTTGGATGGGTTGA [3d5]
0.621

Others:
# lookup: fraction ligated of ATCCTTGTCTAAGACACTTTGGATGGGTTGA [3d71]
0.716

Would you kindly share the measured fraction ligated for TATCACTTGTCGTAAGCATTTGGATGGGTTA [3d2126] ?
0.784

Which value of fraction ligated has been reported for TATCACTTGCGTAAGACCTTTGGATGGTTGA [3d1671] in the records?
0.176

What measured fraction ligated goes with TACACTTGTCGTAAGACACTTGGATGGTTGA [3d718] ?
0.0649

Which fraction ligated value is on record for TATACTTGTCTAAGACACTTTGGATGGGTTG [3d856] ?
0.633

fraction ligated lookup needed for TATACTTGTCGAAGACACTTTGATGGGTTGA [3d864] , thanks.
0.755

Requested field: fraction ligated. Item: TATCCTTGCGTAAGACACTTTGGATGGGTTG [3d999]
0.791

Item TATCACTTGTCGTAGACACTTTGGATGGGTT [3d2057] has what recorded fraction ligated?
0.819

Query: fraction ligated; subject: TATACTTGTCGTAGACACTTTGATGGGTTGA [3d877]
0.36
